IC50 by entry:
# ASSAY_SYSTEM: Plasmepsin I (Plasmodium falciparum)
# Sequence (P39898 whole entry): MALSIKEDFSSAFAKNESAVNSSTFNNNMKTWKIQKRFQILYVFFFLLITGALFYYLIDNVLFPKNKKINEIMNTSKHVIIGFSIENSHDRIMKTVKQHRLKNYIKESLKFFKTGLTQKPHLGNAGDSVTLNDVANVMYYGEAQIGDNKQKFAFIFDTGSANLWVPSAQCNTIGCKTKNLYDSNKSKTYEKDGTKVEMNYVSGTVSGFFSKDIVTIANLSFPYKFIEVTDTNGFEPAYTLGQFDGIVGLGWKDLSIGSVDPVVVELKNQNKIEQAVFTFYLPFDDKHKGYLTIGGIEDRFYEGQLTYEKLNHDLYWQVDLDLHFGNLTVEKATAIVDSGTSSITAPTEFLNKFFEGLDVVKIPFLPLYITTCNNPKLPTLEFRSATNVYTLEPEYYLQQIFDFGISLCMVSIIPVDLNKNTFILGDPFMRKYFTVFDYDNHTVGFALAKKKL
# TEST_METHOD_NOTES: Inhibition of recombinant Plasmodium falciparum Plasmepsin 1
Answer in nM, number only, no unit symbol.

Just so you know, measured IC50 for `CCCCCc1ccc(C(=O)N(Cc2ccc(N(C)c3ccncc3)cc2)C2CCN(CCC(C)C)CC2)cc1` came out at 1120

Just so you know, measured IC50 for `CCCCCc1ccc(C(=O)N(Cc2ccc(-c3ccc(CC(=O)OC)cc3)cc2)C2CCN(Cc3ncc[nH]3)CC2)cc1` came out at 655

Just so you know, measured IC50 for `CCCCCc1ccc(C(=O)N(Cc2ccc(Nc3cc(C)nc4ccccc34)cc2)C2CCN(CCC(C)C)CC2)cc1` came out at 1160

Just so you know, measured IC50 for CCCCN(CCCC)CC(O)c1cc(Cl)cc2cc(-c3ccc(Cl)c(Cl)c3)ccc12 (centres undefined) came out at 2000

Reference source: ChEMBL document CHEMBL4354841
